Tested on: HOP-62 complex spheroids with HUVEC/MSC, viability
Experiment: Anticancer human tumor HOP-62 cell line growth inhibition [RAS]; active = viability on the fitted dose curve at most 10% of control; inactive = the rest
Details: second compound 0.3 µM; first compound 0.03 µM
Select the matching outcome among Y = active, N = inactive

Some solved entries appear below for comparison.
compound	class
CCc1c2c(nc3ccc(O)cc13)-c1cc3c(c(=O)n1C2)COC(=O)[C@]3(O)CC + CCn1c(-c2cc(N3CCN(C)CC3)cnc2C(C)OC)c2c3cc(ccc31)-c1csc(n1)CC(NC(=O)C1CC1C)C(=O)N1CCCC(N1)C(=O)OCC(C)(C)C2	N
CC1(C)CCC(Nc2ncc(C(F)(F)F)c(-c3c[nH]c4c(P(C)(C)=O)c(C#N)ccc34)n2)CN1 (centres undefined) + CCn1c(-c2cc(N3CCN(C)CC3)cnc2C(C)OC)c2c3cc(ccc31)-c1csc(n1)CC(NC(=O)C1CC1C)C(=O)N1CCCC(N1)C(=O)OCC(C)(C)C2	N
CC1(C)CCC(Nc2ncc(C(F)(F)F)c(-c3c[nH]c4c(P(C)(C)=O)c(C#N)ccc34)n2)CN1 (centres undefined) + CCn1c(-c2cccnc2C(C)OC)c2c3cc(ccc31)N1CCOC(CC(NC(=O)C(C(C)C)N(C)C(=O)C3(F)CCN(C(=O)C#CC(C)(C)N(C)C)CC3)C(=O)N3CCCC(N3)C(=O)OCC(C)(C)C2)C1	N

Turning now to a further compound:
For CCc1c2c(nc3ccc(O)cc13)-c1cc3c(c(=O)n1C2)COC(=O)[C@]3(O)CC + CCn1c(-c2cccnc2C(C)OC)c2c3cc(ccc31)N1CCOC(CC(NC(=O)C(C(C)C)N(C)C(=O)C3(F)CCN(C(=O)C#CC(C)(C)N(C)C)CC3)C(=O)N3CCCC(N3)C(=O)OCC(C)(C)C2)C1 , which call appears in the assay record? Y

====

System: HOP-62 complex spheroids with HUVEC/MSC, viability
Assay: Anticancer human tumor HOP-62 cell line growth inhibition [RAS]
Conditions: second compound 0.003 µM; first compound 1 µM; active compounds read low
viability, T/C values for the molecules below.

molecule	viability, T/C
C=CC(=O)N1CCN(c2nc(OCC3CCCN3C)nc3c(F)c(-c4nc(N)cc(C)c4C(F)(F)F)c(Cl)cc23)C(C)C1 (configuration not stated) + CCn1c(-c2cccnc2C(C)OC)c2c3cc(ccc31)N1CCOC(CC(NC(=O)C(C(C)C)N(C)C(=O)C3(F)CCN(C(=O)C#CC(C)(C)N(C)C)CC3)C(=O)N3CCCC(N3)C(=O)OCC(C)(C)C2)C1	72.9%

Answer with the recorded viability, T/C of CC(C)NCC(C(=O)N1CCN(c2ncnc3c2C(C)CC3O)CC1)c1ccc(Cl)cc1 (configuration not stated) + CCn1c(-c2cc(N3CCN(C)CC3)cnc2C(C)OC)c2c3cc(ccc31)-c1csc(n1)CC(NC(=O)C1CC1C)C(=O)N1CCCC(N1)C(=O)OCC(C)(C)C2 only. 71.3%

====

System: HOP-62 complex spheroids with HUVEC/MSC, viability
Experiment: Anticancer human tumor HOP-62 cell line growth inhibition [RAS];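 also: spheroids exposed to agents for seven days before readout; 100% = DMSO vehicle control viability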
Settings: second compound 0.1 µM; first compound 0.316 µM; active compounds read low
Decide using viability, T/C alone. Strictly below 70%: rule met. Equal to or above 70%: rule not met.

Some solved entries appear below for comparison.
molecule	class
NC1c2ccccc2OC12CCN(c1cnc3c(N4CCCc5ncccc54)n[nH]c3n1)CC2 (stereo not given) + C#Cc1c(F)ccc2cc(O)cc(-c3ncc4c(N5CC6CCC(C5)N6)nc(OCC56CCCN5CC(F)C6)nc4c3F)c12	rule met
CC(C)NCC(C(=O)N1CCN(c2ncnc3c2C(C)CC3O)CC1)c1ccc(Cl)cc1 (stereo not given) + C=CC(=O)N1CCN(c2nc(OCC3CCCN3C)nc3c(F)c(-c4nc(N)cc(C)c4C(F)(F)F)c(Cl)cc23)C(C)C1	rule met
C[C@@H](NC(=O)c1ncnc(N)c1Cl)c1ncc(C(=O)Nc2cc(C(F)(F)F)c(Cl)cn2)s1 + C#Cc1c(F)ccc2cc(O)cc(-c3ncc4c(N5CC6CCC(C5)N6)nc(OCC56CCCN5CC(F)C6)nc4c3F)c12	rule not met

Turning now to a further molecule:
Please determine if C=CC(=O)Nc1cc(Nc2nccc(-c3cn(C)c4ccccc34)n2)c(OC)cc1N(C)CCN(C)C + C#Cc1c(F)ccc2cc(O)cc(-c3ncc4c(N5CC6CCC(C5)N6)nc(OCC56CCCN5CC(F)C6)nc4c3F)c12 is below 70% in terms of viability, T/C. rule not met

====

System: HOP-62 complex spheroids with HUVEC/MSC, viability
Experiment: Anticancer human tumor HOP-62 cell line growth inhibition [RAS];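 also: spheroids exposed to agents for seven days before readout; 100% = DMSO vehicle control viability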
Details: second compound 0.00949 µM; first compound 0.316 µM; active compounds read low
measurement-name: viability, T/C (%)
# output: bare number, implied unit %

Answer with the recorded viability, T/C of CC1(O)CCCC1n1c(=O)c(C(F)F)cc2cnc(NC3CCN(S(C)(=O)=O)CC3)nc21 (centres undefined) + CCn1c(-c2cccnc2C(C)OC)c2c3cc(ccc31)N1CCOC(CC(NC(=O)C(C(C)C)N(C)C(=O)C3(F)CCN(C(=O)C#CC(C)(C)N(C)C)CC3)C(=O)N3CCCC(N3)C(=O)OCC(C)(C)C2)C1 only. 61

Answer with the recorded viability, T/C of CC(C)NCC(C(=O)N1CCN(c2ncnc3c2C(C)CC3O)CC1)c1ccc(Cl)cc1 (centres undefined) + CCn1c(-c2cc(N3CCN(C)CC3)cnc2C(C)OC)c2c3cc(ccc31)-c1csc(n1)CC(NC(=O)C1CC1C)C(=O)N1CCCC(N1)C(=O)OCC(C)(C)C2 only. 58.5

Answer with the recorded viability, T/C of CC(C)NCC(C(=O)N1CCN(c2ncnc3c2C(C)CC3O)CC1)c1ccc(Cl)cc1 (centres undefined) + CCn1c(-c2cccnc2C(C)OC)c2c3cc(ccc31)N1CCOC(CC(NC(=O)C(C(C)C)N(C)C(=O)C3(F)CCN(C(=O)C#CC(C)(C)N(C)C)CC3)C(=O)N3CCCC(N3)C(=O)OCC(C)(C)C2)C1 only. 80.1

Answer with the recorded viability, T/C of CC(Nc1ccc2c(c1)OCCn1cc(N3C(=O)OCC3C(F)F)nc1-2)C(N)=O (centres undefined) + CCn1c(-c2cccnc2C(C)OC)c2c3cc(ccc31)N1CCOC(CC(NC(=O)C(C(C)C)N(C)C(=O)C3(F)CCN(C(=O)C#CC(C)(C)N(C)C)CC3)C(=O)N3CCCC(N3)C(=O)OCC(C)(C)C2)C1 only. 51.9

====

System: HOP-62 complex spheroids with HUVEC/MSC, viability
Test: Anticancer human tumor HOP-62 cell line growth inhibition [RAS];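 also: spheroids exposed to agents for seven days before readout; 100% = DMSO vehicle control viability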
Conditions: second compound 3.16 µM; first compound 0.316 µM; active compounds read low
viability, T/C values for the compounds below.
# output: bare number, implied unit %

compound	tested-target	reading-unit	numeric-readout
O=C(c1ccc(F)c(F)c1Nc1ccc(I)cc1F)N1CC(O)([C@@H]2CCCCN2)C1 + C#Cc1c(F)ccc2cc(O)cc(-c3ncc4c(N5CC6CCC(C5)N6)nc(OCC56CCCN5CC(F)C6)nc4c3F)c12	HOP-62 complex spheroids with HUVEC/MSC, viability	%	22.3
CC(=O)OC12COC1CC(O)C1(C)C(=O)C(O)C3=C(C)C(OC(=O)C(O)C(NC(=O)OC(C)(C)C)c4ccccc4)CC(O)(C(OC(=O)c4ccccc4)C21)C3(C)C (stereo not drawn) + C#Cc1c(F)ccc2cc(O)cc(-c3ncc4c(N5CC6CCC(C5)N6)nc(OCC56CCCN5CC(F)C6)nc4c3F)c12	HOP-62 complex spheroids with HUVEC/MSC, viability	%	13.2

Would you kindly look at the next entry?
Answer with the recorded viability, T/C of CC(Nc1ccc2c(c1)OCCn1cc(N3C(=O)OCC3C(F)F)nc1-2)C(N)=O (stereo not drawn) + C#Cc1c(F)ccc2cc(O)cc(-c3ncc4c(N5CC6CCC(C5)N6)nc(OCC56CCCN5CC(F)C6)nc4c3F)c12 only. 40

====

Tested on: HOP-62 complex spheroids with HUVEC/MSC, viability
Experiment: Anticancer human tumor HOP-62 cell line growth inhibition [RAS];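 also: spheroids exposed to agents for seven days before readout; 100% = DMSO vehicle control viability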
Settings: second compound 0.1 µM; first compound 0.316 µM; active compounds read low
Excerpt: RAS pathway inhibitors in Combinations in Complex Spheroids A high-throughput screen of multi-cell type tumor spheroids was designed to identify active combinations of RAS pathway inhibitors and targeted small molecules. Complex spheroids include a stromal component modeled by human endothelial cells (HUVEC) and fibroblasts modeled by human mesenchymal stem cells (MSCs). […] Compounds. […] If the clinical Cmax for an agent had not been determined, the highest concentration tested was 10 microM. […]
viability, T/C values for the molecules below.
# output: bare number, implied unit %

// worked examples, viability, T/C included
molecule	tested-target	measurement-name	reading-unit	numeric-readout
C=CC(=O)N1CCN(c2nc(OCC3CCCN3C)nc3c(F)c(-c4nc(N)cc(C)c4C(F)(F)F)c(Cl)cc23)C(C)C1 (stereo not drawn) + C#Cc1c(F)ccc2cc(O)cc(-c3ncc4c(N5CC6CCC(C5)N6)nc(OCC56CCCN5CC(F)C6)nc4c3F)c12	HOP-62 complex spheroids with HUVEC/MSC, viability	viability, T/C	%	69.1
O=C(c1ccc(F)c(F)c1Nc1ccc(I)cc1F)N1CC(O)([C@@H]2CCCCN2)C1 + C#Cc1c(F)ccc2cc(O)cc(-c3ncc4c(N5CC6CCC(C5)N6)nc(OCC56CCCN5CC(F)C6)nc4c3F)c12	HOP-62 complex spheroids with HUVEC/MSC, viability	viability, T/C	%	31.3

Would you kindly look at the next entry?
Answer with the recorded viability, T/C of CC(Nc1ccc2c(c1)OCCn1cc(N3C(=O)OCC3C(F)F)nc1-2)C(N)=O (stereo not drawn) + C=CC(=O)N1CCN(c2nc(OCC3CCCN3C)nc3c(F)c(-c4nc(N)cc(C)c4C(F)(F)F)c(Cl)cc23)C(C)C1 only. 39.2

Data origin, for the record: PubChem BioAssay AID2060892
